- Experimental target: GlmU (UniProt A7ZTU1)
- Sequence (A7ZTU1 whole entry, looked up): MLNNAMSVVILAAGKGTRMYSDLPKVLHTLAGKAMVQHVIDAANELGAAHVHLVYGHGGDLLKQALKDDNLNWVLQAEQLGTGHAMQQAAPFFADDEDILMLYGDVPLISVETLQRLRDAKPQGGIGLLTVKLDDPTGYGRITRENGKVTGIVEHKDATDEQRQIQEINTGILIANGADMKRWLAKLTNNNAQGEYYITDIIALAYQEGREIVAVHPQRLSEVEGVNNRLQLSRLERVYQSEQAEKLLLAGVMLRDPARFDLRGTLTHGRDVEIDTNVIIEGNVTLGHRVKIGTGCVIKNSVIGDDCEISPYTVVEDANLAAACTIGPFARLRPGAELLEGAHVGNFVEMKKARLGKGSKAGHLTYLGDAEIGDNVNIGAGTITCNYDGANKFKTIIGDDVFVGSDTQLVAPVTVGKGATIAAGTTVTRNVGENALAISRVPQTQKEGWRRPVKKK
- Protocol notes: relative enzymatic activity vs untreated control (fraction); higher = less inhibition
- Reported conditions: 100 µM; incubation time: 2 h at 37 C
Entry flag: YES if relative enzymatic activity reaches 1; NO if it does not.

[
  {
    "Molecule": "CCCN1C[C@H](C)[C@@H](O)[C@](C)(O)[C@@H](CC)OC(=O)[C@H](C)[C@@H](O[C@H]2C[C@@](C)(OC)[C@@H](O)[C@H](C)O2)[C@H](C)[C@@H](O[C@@H]2O[C@H](C)C[C@H](N(C)C)[C@H]2O)[C@](C)(O)C[C@H]1C",
    "Assigned label": "YES"
  },
  {
    "Molecule": "CON=C(C(=O)NC1C(=O)N2C(C(=O)O)=C(C[N+]3(C)CCCC3)CSC12)c1csc(N)n1.[Cl-] (stereo not drawn)",
    "Assigned label": "NO"
  },
  {
    "Molecule": "Nc1nc(/C(=N/O)C(=O)N[C@@H]2C(=O)N3C(C(=O)O)=C(/C=C4\\CCN([C@@H]5CCNC5)C4=O)CS[C@H]23)ns1",
    "Assigned label": "NO"
  },
  {
    "Molecule": "O=C(Cn1cnnn1)NC1C(=O)N2C(C(=O)O)=C(CSc3nncs3)CSC12 (stereo not drawn)",
    "Assigned label": "YES"
  },
  {
    "Molecule": "C=CC1=C(C(=O)O)N2C(=O)[C@@H](NC(=O)/C(=N\\OCC(=O)O)c3csc(N)n3)[C@H]2SC1",
    "Assigned label": "YES"
  },
  {
    "Molecule": "COC1=C(OC)C(=O)C(CCCCCCCCCC[P+](c2ccccc2)(c2ccccc2)c2ccccc2)=C(C)C1=O",
    "Assigned label": "NO"
  }
]
